# credit: paper PMC8526164

System: AtEndoV (WT) (Arabidopsis thaliana)
experimentSummary: SPR
testContext: N at position 11 = deoxyinosine; SPR (ProteOn XPR36, NLC chip): PBS, 0.005% Tween 20, pH 7.4, 1 mM EDTA, no divalent metal, 25 C; protein 31.25-500 nM
measureName: Kd (µM)
# value in µM; strip the unit string

Returns the measured Kd for the input sequence. Input: CTGTATGATGNAGATGCTGAC [ssDNA(dI) 21-mer]
220

---

Tested on: AtEndoV (Y100A) (Arabidopsis thaliana)
experimentSummary: SPR
testContext: N at position 11 = deoxyinosine; SPR (ProteOn XPR36, NLC chip): PBS, 0.005% Tween 20, pH 7.4, 1 mM EDTA, no divalent metal, 25 C; protein 31.25-500 nM
measureName: Kd (µM)
I only need the number, in µM, no unit after it.

Name the recorded Kd for CTGTATGATGNAGATGCTGAC [ssDNA(dI) 21-mer] .
160

---

Tested on: AtEndoV (WT) (Arabidopsis thaliana)
experimentSummary: SPR
testContext: N at position 11 = inosine; SPR (ProteOn XPR36, NLC chip): PBS, 0.005% Tween 20, pH 7.4, 1 mM EDTA, no divalent metal, 25 C; protein 31.25-500 nM
measureName: Kd
I'd appreciate it if you included the unit after the number.

Give the reported Kd for CUGUAUGAUGNAGAUGCUGAC [ssRNA(I) 21-mer] (system: AtEndoV (WT) (Arabidopsis thaliana)).
2 nM
